Hey, just so you know, these numbers are from PubChem BioAssay (NCI).

# System: OVCAR-5 ovarian
# Assay Notes: NCI-60 one-dose screen, 48 h (100 = growth as untreated, 0 = no growth, -100 = all killed)
# Condition Notes: 10 µM unless noted
# Method: Growth inhibition of the OVCAR-5 human tumor cell line is measured as a screen for anti-cancer activity. Cells are grown in 96 well plates and exposed to the test compound for 48 hours. Compounds are tested at a single concentration, which is 10^-5 M for most compounds. The reported endpoint is percent growth (GI% or GIPRCNT), where numbers from 0 - 100% represent growth inhibition, and numbers from -100% - 0 represent cell death. For example, a value of 40 represents 60% growth inhibition. […]
About 83,000 compounds went through this panel and 20% of them were active in at least one assay; those are over-represented in the sample as a whole.
Measured growth, listed per entry.
Form entry: value (%) — number only.

Some entries whose results are on file:
{"Molecule": "COC(=O)Nc1nc2ccc(C3(c4ccc(F)cc4)OCCO3)cc2[nH]1", "Units Label": "%", "Readout Value": 47.5}
{"Molecule": "CCCCCCCCCCCC1=NCCCN1CCCC", "Units Label": "%", "Readout Value": 93.4}
{"Molecule": "COc1cc2c(c(OC)c1OC)-c1ccc(NCc3ccccc3)c(=O)cc1[C@@H](NC(C)=O)CC2", "Units Label": "%", "Readout Value": 41.8}
{"Molecule": "Nc1cc(-c2ccccc2)ccc1O", "Units Label": "%", "Readout Value": 104}

Next up:
I would be grateful if you could share the reported growth for O=C1/C(=C\c2ccc([N+](=O)[O-])cc2)CS(=O)(=O)C/C1=C/c1ccc([N+](=O)[O-])cc1 .
-99

====

# Test system: RXF 393 renal
# Assay Notes: NCI-60 one-dose screen, 48 h (100 = growth as untreated, 0 = no growth, -100 = all killed)
# Condition Notes: 10 µM unless noted
# Description: Cells are grown in 96 well plates and exposed to the test compound for 48 hours. Compounds are tested at a single concentration, which is 10^-5 M for most compounds. The reported endpoint is percent growth (GI% or GIPRCNT), where numbers from 0 - 100% represent growth inhibition, and numbers from -100% - 0 represent cell death. For example, a value of 40 represents 60% growth inhibition. A value of 0 means no net growth occurred over the course of the experiment. […]
This is part of a sample that, as a whole, favours compounds with a hit. Of some 83,000 tested, about 20% had one in any assay.
Measure: growth (%)
Form entry: value (%) — number only.

{"Compound": "O=[N+]([O-])c1ccc(N2CCN(Cc3ccccc3)CC2)c2c1no[n+]2[O-]", "Subject Of Test": "RXF 393 renal", "growth (%)": -5.34}
{"Compound": "O=[N+]([O-])c1ccc(Oc2ccccc2Cl)c([N+](=O)[O-])c1", "Subject Of Test": "RXF 393 renal", "growth (%)": 86.7}
{"Compound": "CCCCCCCCCCCCCCCC[N+]1(C)CCCC1c1cccnc1 (stereo not drawn)", "Subject Of Test": "RXF 393 renal", "growth (%)": 45.3}
{"Compound": "O=C1C=CC(=O)N1C1CCCCCCCCCCC1", "Subject Of Test": "RXF 393 renal", "growth (%)": 64}
{"Compound": "CCCCCCCCCCCCCCCCSC(=NCC)NCC", "Subject Of Test": "RXF 393 renal", "growth (%)": 6.55}
{"Compound": "O=C1C=CC(=O)N1c1ccc(O)cc1", "Subject Of Test": "RXF 393 renal", "growth (%)": 110}

I would be grateful if you could share the reported growth for COC(=O)c1cc([N+](=O)[O-])cc([N+](=O)[O-])c1Cl .
91.4

And the next one, O=C1C=CC(=O)N1c1cc(Cl)c(Cl)cc1Cl ?
106

And the next one, O=C1C=Cc2ccccc2/C1=C/c1nc(-c2ccccc2)oc1O ?
101

And the next one, CC1=CC(=O)C=CC1(C)C(Cl)(Cl)Cl (stereo not drawn) ?
115

And the next one, Cc1cccc2c(N)c3ccccc3nc12 ?
-48.2

And the next one, NNc1cccc([N+](=O)[O-])c1 ?
122

And the next one, CC(CSc1n[nH]c(=S)s1)c1ccccc1 (stereo not drawn) ?
118

====

Measured growth, listed per entry.
# System: HOP-62 NSCLC
# Assay Notes: NCI-60 one-dose screen, 48 h (100 = growth as untreated, 0 = no growth, -100 = all killed)
# Condition Notes: 10 µM unless noted
About 83,000 compounds went through this panel and 20% of them were active in at least one assay; those are over-represented in the sample as a whole.
Form entry: value (%) — number only.

Some entries whose results are on file:
{"Compound": "N#CC(I)CS(=O)(=O)c1ccccc1 (centres undefined)", "growth / %": 98.6}
{"Compound": "Cc1cc(C(=C2C=CC(=Nc3ccccc3)C=C2)c2ccc(Nc3ccccc3)cc2)ccc1N", "growth / %": -85.2}
{"Compound": "O=C1/C(=C/c2ccccn2)CCc2ccccc21", "growth / %": 113}

I would be grateful if you could share the reported growth for O=S(=O)(O)c1cnccn1 .
71.6

And the next one, CCCCN(CCCC)CCCCCCCCCCO ?
104

And the next one, CCN1/C(=C/C(C)=C/c2sc3ccc4ccccc4c3[n+]2CC)Sc2ccc3ccccc3c21 ?
-65.2

And the next one, C1=C(c2ccccc2)c2ccccc2C1 ?
94

====

# Test system: MDA-MB-435 melanoma
# Assay Notes: NCI-60 one-dose screen, 48 h (100 = growth as untreated, 0 = no growth, -100 = all killed)
# Condition Notes: 10 µM unless noted
# Experimental: Growth inhibition of the MDA-MB-435 human Melanoma tumor cell line is measured as a screen for anti-cancer activity. Cells are grown in 96 well plates and exposed to the test compound for 48 hours. Compounds are tested at a single concentration, which is 10^-5 M for most compounds. The reported endpoint is percent growth (GI% or GIPRCNT), where numbers from 0 - 100% represent growth inhibition, and numbers from -100% - 0 represent cell death. […]
Compounds without any hit were thinned out: in the full panel of roughly 83,000, 20% have a hit.
Measured growth, listed per entry.
Form entry: value (%) — number only.

Some entries whose results are on file:
{"Molecule": "OC(Cc1cc(CC(O)(C(F)(F)F)C(F)(F)F)nc(CC(O)(C(F)(F)F)C(F)(F)F)c1)(C(F)(F)F)C(F)(F)F", "growth [%]": 0.574}
{"Molecule": "OC(c1cc(-c2ccc(Cl)cc2)nc2c(Cl)cccc12)C1CCCCN1 (centres undefined)", "growth [%]": -78.8}

I would be grateful if you could share the reported growth for O=[N+]([O-])c1ccc([I+]c2ccccc2)cc1 .
20.8

And the next one, CCOC(=O)C1=C(C(=O)c2ccccc2)C(c2cccc([N+](=O)[O-])c2)C(C(=O)c2ccccc2)=C(C(=O)OCC)N1 ?
91.6

And the next one, O=C(O)c1cc2c(s1)C(=O)c1sccc1C2=O ?
-99.6

And the next one, COC(=O)c1cc([N+](=O)[O-])cc([N+](=O)[O-])c1Cl ?
81.7

And the next one, O=C(O)c1cccc2cccc(-c3c4ccc(=O)c(O)c-4oc4c(O)c(O)ccc34)c12 ?
100

And the next one, CCCCCCCCC(=O)OCCCC(CCC(CCC1CCCO1)OC(=O)CCCCCCCC)OC(=O)CCCCCCCC (centres undefined) ?
104

And the next one, CCCCCCC1N=C(N)N=C(N)N1c1cccc(Cl)c1 (centres undefined) ?
24.1

And the next one, CC1(C)OC2C(COC(c3ccccc3)(c3ccccc3)c3ccccc3)OC(c3c[nH]c4c(N)ncnc34)C2O1 (centres undefined) ?
62.4

And the next one, CCCC[n+]1c(/C=C\c2c(OC)cc(OC)cc2OC)ccc2ccccc21 ?
-41.2

And the next one, O=C(Nc1ccc(Cl)c(Cl)c1)Nc1ccccc1O ?
76.2

And the next one, [Cl-].[Rh+3].c1ccc(-c2ccnc3c2ccc2c(-c4ccccc4)ccnc23)cc1.c1ccc(-c2ccnc3c2ccc2c(-c4ccccc4)ccnc23)cc1.c1ccc(-c2ccnc3c2ccc2c(-c4ccccc4)ccnc23)cc1 ?
72.5

And the next one, N#Cc1c2ccccc2nc2ccccc12 ?
103

And the next one, O=S(=O)(O)c1cnccn1 ?
105

And the next one, CN(C)c1ccc(C(C#N)(c2ccccc2)c2ccc(N(C)C)cc2)cc1 ?
84.2

And the next one, CCN(CC)CC(O)c1cc(-c2ccc(Cl)cc2)nc2cc(Cl)ccc12 (centres undefined) ?
13.1

And the next one, Cc1cc(C(N)=O)cc(C)c1C(=O)OCCCl ?
98

====

# Tested on: MDA-MB-435 melanoma
# Assay Notes: NCI-60 one-dose screen, 48 h (100 = growth as untreated, 0 = no growth, -100 = all killed)
# Condition Notes: 10 µM unless noted
About 83,000 compounds went through this panel and 20% of them were active in at least one assay; those are over-represented in the sample as a whole.
Measure: growth (%)
Form entry: value (%) — number only.

Some entries whose results are on file:
{"Chem Smiles": "CC1(O)CCCCCC1", "Measure": "growth", "Units Label": "%", "Readout Value": 103}
{"Chem Smiles": "CCCOC(=O)c1nc(N(CC2CCCCC2)C(=O)NC)sc1/N=C/c1ccccc1", "Measure": "growth", "Units Label": "%", "Readout Value": -46.9}

I would be grateful if you could share the reported growth for Cc1oc2c(C)c3oc(=O)cc(C)c3cc2c1CCl .
63.4
